Test: Pharmacokinetic profiles in rats
Assay type: in vivo, rat
Conditions: rat, plasma, iv dosing 1 mg/kg, read-out: Vss
EXPERIMENTAL ENDPOINT: Vd (L/kg)

Examples with their reported Vd follow.
STRUCTURE: Cc1noc(-c2c(N)ncnc2N[C@@H](C)c2cc3cccc(-c4cnn(C)c4)c3c(=O)n2C2CC2)n1
UNIT SPEC: L/kg
RESULT NUMBER: 3.14

STRUCTURE: CCc1noc(-c2c(N)ncnc2N[C@@H](CC)c2cc3cccc(Cl)c3c(=O)n2C2CC2)n1
UNIT SPEC: L/kg
RESULT NUMBER: 6.07

STRUCTURE: C[C@H](Nc1ncnc(N)c1-c1nnn(C)n1)c1cc2cccc(-c3cnn(C)c3)c2c(=O)n1-c1ccccc1
UNIT SPEC: L/kg
RESULT NUMBER: 0.88

STRUCTURE: CC[C@H](Nc1ncnc(N)c1-c1nc(C)no1)c1cc2cccc(C)c2c(=O)n1-c1ccccc1
UNIT SPEC: L/kg
RESULT NUMBER: 4.42

STRUCTURE: CC[C@H](Nc1ncnc(N)c1-c1nnc(C)o1)c1cc2cccc(Cl)c2c(=O)n1-c1ccccc1
UNIT SPEC: L/kg
RESULT NUMBER: 1.87

(I) C[C@H](Nc1ncnc(N)c1-c1nnn(C)n1)c1cc2cccc(-c3cnn(C)c3)c2c(=O)n1C1CC1
(II) C[C@H](Nc1ncnc(N)c1-c1ncn(C)n1)c1cc2cccc(Cl)c2c(=O)n1C1CC1
(III) CC[C@H](Nc1ncnc(N)c1-c1nc(C)no1)c1cc2cccc(Cl)c2c(=O)n1-c1ccccc1
(IV) Cc1nnc(-c2c(N)ncnc2N[C@@H](C)c2cc3cccc(Cl)c3c(=O)n2-c2ccccc2)o1
(V) CC[C@H](Nc1ncnc(N)c1-c1nc(C)no1)c1cc2cccc(Cl)c2c(=O)n1C1CC1
Hey, quick one: sort these by Vd, top value first please. Reply with the labels, ordered as the question asks. V, III, II, I, IV
